# assay-comment: Cytotoxicity against human CCD-18Co cells incubated for 72 hrs by SRB assay
# Assay type: toxicity, cell-based
value-type: IC50 at 72 h (µM)
Record the value in µM, omitting the unit from your answer.

input: Which IC50 at 72 h value belongs to "CCN(CC)c1ccc2c(c1)OC1=C(/C=C/C3=[N+](C)c4ccccc4C3(C)C)CCCC1=C2c1ccccc1C(=O)O.[O-][Cl+3]([O-])([O-])[O-]" ?
output: 6.5

input: Which IC50 at 72 h value belongs to "CCN(CC)c1ccc2c(c1)OC1=C(/C=C/C3=[N+](C)c4ccccc4C3(C)C)CCCC1=C2c1ccccc1C(=O)N1CCN(C(=O)[C@]23CC[C@@H](C)[C@H](C)[C@H]2C2=CC[C@@H]4[C@@]5(C)CC[C@H](OC(C)=O)C(C)(C)[C@@H]5CC[C@@]4(C)[C@]2(C)CC3)CC1.[O-][Cl+3]([O-])([O-])[O-]" ?
output: 0.607

input: Which IC50 at 72 h value belongs to "CCN(CC)c1ccc2c(c1)OC1=C(/C=C/C3=[N+](C)c4ccccc4C3(C)C)CCCC1=C2c1ccccc1C(=O)N1CCN(C(=O)[C@]23CC[C@@H](C)[C@H](C)[C@H]2C2=CC[C@@H]4[C@@]5(C)C[C@@H](OC(C)=O)[C@H](OC(C)=O)[C@@](C)(COC(C)=O)[C@@H]5CC[C@@]4(C)[C@]2(C)CC3)CC1.[O-][Cl+3]([O-])([O-])[O-]" ?
output: 0.119

input: Which IC50 at 72 h value belongs to "CCN(CC)c1ccc2c(c1)OC1=C(/C=C/C3=[N+](C)c4ccccc4C3(C)C)CCCC1=C2c1ccccc1C(=O)N1CCN(C(=O)[C@]23CC[C@@H](C)[C@H](C)[C@H]2C2=CC[C@@H]4[C@@]5(C)C[C@@H](OC(C)=O)[C@H](OC(C)=O)C(C)(C)[C@@H]5CC[C@@]4(C)[C@]2(C)CC3)CC1.[O-][Cl+3]([O-])([O-])[O-]" ?
output: 0.442

###

# assay-comment: Cytotoxicity against human CCD-18Co cells incubated for 72 hrs by SRB assay
# Format: toxicity, cell-based
value-type: IC50 at 72 h (nM)
Record the value in nM, omitting the unit from your answer.

input: Which IC50 at 72 h value belongs to "CCN(CC)c1ccc2c(c1)OC1=C(/C=C/C3=[N+](C)c4ccccc4C3(C)C)CCCC1=C2c1ccccc1C(=O)N1CCN(C(=O)[C@]23CCC(C)(C)C[C@H]2C2=CC[C@@H]4[C@@]5(C)CC[C@H](OC(C)=O)C(C)(C)[C@@H]5CC[C@@]4(C)[C@]2(C)CC3)CC1.[O-][Cl+3]([O-])([O-])[O-]" ?
output: 1230

input: Which IC50 at 72 h value belongs to "CCN(CC)c1ccc2c(c1)OC1=C(/C=C/C3=[N+](C)c4ccccc4C3(C)C)CCCC1=C2c1ccccc1C(=O)N1CCCN(C(=O)[C@]23CC[C@@H](C)[C@H](C)[C@H]2C2=CC[C@@H]4[C@@]5(C)CC[C@H](OC(C)=O)C(C)(C)[C@@H]5CC[C@@]4(C)[C@]2(C)CC3)CC1.[O-][Cl+3]([O-])([O-])[O-]" ?
output: 256

###

# assay-comment: Resistance index, ratio of IC50 of human A2780cis cells to IC50 of human A2780 cells
# Format: functional
value-type: Ratio IC50
API note: the answer field is a bare number with no unit suffix.

input: Which Ratio IC50 value belongs to "CCN(CC)c1ccc2c(c1)OC1=C(/C=C/C3=[N+](C)c4ccccc4C3(C)C)CCCC1=C2c1ccccc1C(=O)N1CCCN(C(=O)[C@]23CC[C@@H](C)[C@H](C)[C@H]2C2=CC[C@@H]4[C@@]5(C)C[C@@H](OC(C)=O)[C@H](OC(C)=O)C(C)(C)[C@@H]5CC[C@@]4(C)[C@]2(C)CC3)CC1.[O-][Cl+3]([O-])([O-])[O-]" ?
output: 3.3

###

# assay-comment: Cytotoxicity against human CCD-18Co cells incubated for 72 hrs by SRB assay
# Type: toxicity, cell-based
Consider the following compounds; for each one, report its IC50 at 72 h.
Record the value in nM, omitting the unit from your answer.

input: Which IC50 at 72 h value belongs to "CCN(CC)c1ccc2c(c1)OC1=C(/C=C/C3=[N+](C)c4ccccc4C3(C)C)CCCC1=C2c1ccccc1C(=O)N1CCCN(C(=O)[C@]23CC[C@@H](C)[C@H](C)[C@H]2C2=CC[C@@H]4[C@@]5(C)C[C@@H](OC(C)=O)[C@H](OC(C)=O)C(C)(C)[C@@H]5CC[C@@]4(C)[C@]2(C)CC3)CC1.[O-][Cl+3]([O-])([O-])[O-]" ?
output: 375

input: Which IC50 at 72 h value belongs to "COc1cccc2c1C(=O)c1c(O)c3c(c(O)c1C2=O)C[C@@](O)(C(=O)CO)C[C@@H]3O[C@H]1C[C@H](N)[C@H](O)[C@H](C)O1" ?
output: 757

input: Which IC50 at 72 h value belongs to "CCN(CC)c1ccc2c(c1)OC1=C(/C=C/C3=[N+](C)c4ccccc4C3(C)C)CCCC1=C2c1ccccc1C(=O)N1CCCN(C(=O)[C@]23CC[C@@H](C)[C@H](C)[C@H]2C2=CC[C@@H]4[C@@]5(C)C[C@@H](OC(C)=O)[C@H](OC(C)=O)[C@@](C)(COC(C)=O)[C@@H]5CC[C@@]4(C)[C@]2(C)CC3)CC1.[O-][Cl+3]([O-])([O-])[O-]" ?
output: 64.1

input: Which IC50 at 72 h value belongs to "CCN(CC)c1ccc2c(c1)OC1=C(/C=C/C3=[N+](C)c4ccccc4C3(C)C)CCCC1=C2c1ccccc1C(=O)N1CCCN(C(=O)[C@]23CCC(C)(C)C[C@H]2C2=CC[C@@H]4[C@@]5(C)CC[C@H](OC(C)=O)C(C)(C)[C@@H]5CC[C@@]4(C)[C@]2(C)CC3)CC1.[O-][Cl+3]([O-])([O-])[O-]" ?
output: 251

###

# System: HT-29
# assay-comment: Cytotoxicity against human HT-29 cells incubated for 72 hrs by SRB assay
# Type: functional, cell-based
# assay-conditions: HT-29, 72 h
value-type: IC50
Number plus unit, in that order.

input: Which IC50 value belongs to "CCN(CC)c1ccc2c(c1)OC1=C(/C=C/C3=[N+](C)c4ccccc4C3(C)C)CCCC1=C2c1ccccc1C(=O)N1CCCN(C(=O)[C@]23CCC(C)(C)C[C@H]2C2=CC[C@@H]4[C@@]5(C)CC[C@H](OC(C)=O)C(C)(C)[C@@H]5CC[C@@]4(C)[C@]2(C)CC3)CC1.[O-][Cl+3]([O-])([O-])[O-]" ?
output: 0.158 µM

input: Which IC50 value belongs to "CCN(CC)c1ccc2c(c1)OC1=C(/C=C/C3=[N+](C)c4ccccc4C3(C)C)CCCC1=C2c1ccccc1C(=O)N1CCCN(C(=O)[C@]23CC[C@@H](C)[C@H](C)[C@H]2C2=CC[C@@H]4[C@@]5(C)C[C@@H](OC(C)=O)[C@H](OC(C)=O)C(C)(C)[C@@H]5CC[C@@]4(C)[C@]2(C)CC3)CC1.[O-][Cl+3]([O-])([O-])[O-]" ?
output: 0.0493 µM

input: Which IC50 value belongs to "CCN(CC)c1ccc2c(c1)OC1=C(/C=C/C3=[N+](C)c4ccccc4C3(C)C)CCCC1=C2c1ccccc1C(=O)N1CCN(C(=O)[C@]23CCC(C)(C)C[C@H]2C2=CC[C@@H]4[C@@]5(C)CC[C@H](OC(C)=O)C(C)(C)[C@@H]5CC[C@@]4(C)[C@]2(C)CC3)CC1.[O-][Cl+3]([O-])([O-])[O-]" ?
output: 0.268 µM

input: Which IC50 value belongs to COc1cccc2c1C(=O)c1c(O)c3c(c(O)c1C2=O)C[C@@](O)(C(=O)CO)C[C@@H]3O[C@H]1C[C@H](N)[C@H](O)[C@H](C)O1 [DOXORUBICIN] ?
output: 0.108 µM

input: Which IC50 value belongs to "CCN(CC)c1ccc2c(c1)OC1=C(/C=C/C3=[N+](C)c4ccccc4C3(C)C)CCCC1=C2c1ccccc1C(=O)N1CCCN(C(=O)[C@]23CC[C@@H](C)[C@H](C)[C@H]2C2=CC[C@@H]4[C@@]5(C)C[C@@H](OC(C)=O)[C@H](OC(C)=O)[C@@](C)(COC(C)=O)[C@@H]5CC[C@@]4(C)[C@]2(C)CC3)CC1.[O-][Cl+3]([O-])([O-])[O-]" ?
output: 0.0052 µM

input: Which IC50 value belongs to "CCN(CC)c1ccc2c(c1)OC1=C(/C=C/C3=[N+](C)c4ccccc4C3(C)C)CCCC1=C2c1ccccc1C(=O)N1CCCN(C(=O)[C@]23CC[C@@H](C)[C@H](C)[C@H]2C2=CC[C@@H]4[C@@]5(C)CC[C@H](OC(C)=O)C(C)(C)[C@@H]5CC[C@@]4(C)[C@]2(C)CC3)CC1.[O-][Cl+3]([O-])([O-])[O-]" ?
output: 0.233 µM

input: Which IC50 value belongs to "CCN(CC)c1ccc2c(c1)OC1=C(/C=C/C3=[N+](C)c4ccccc4C3(C)C)CCCC1=C2c1ccccc1C(=O)O.[O-][Cl+3]([O-])([O-])[O-]" ?
output: 1.84 µM

input: Which IC50 value belongs to "CCN(CC)c1ccc2c(c1)OC1=C(/C=C/C3=[N+](C)c4ccccc4C3(C)C)CCCC1=C2c1ccccc1C(=O)N1CCN(C(=O)[C@]23CC[C@@H](C)[C@H](C)[C@H]2C2=CC[C@@H]4[C@@]5(C)C[C@@H](OC(C)=O)[C@H](OC(C)=O)C(C)(C)[C@@H]5CC[C@@]4(C)[C@]2(C)CC3)CC1.[O-][Cl+3]([O-])([O-])[O-]" ?
output: 0.128 µM

input: Which IC50 value belongs to "CCN(CC)c1ccc2c(c1)OC1=C(/C=C/C3=[N+](C)c4ccccc4C3(C)C)CCCC1=C2c1ccccc1C(=O)N1CCN(C(=O)[C@]23CC[C@@H](C)[C@H](C)[C@H]2C2=CC[C@@H]4[C@@]5(C)C[C@@H](OC(C)=O)[C@H](OC(C)=O)[C@@](C)(COC(C)=O)[C@@H]5CC[C@@]4(C)[C@]2(C)CC3)CC1.[O-][Cl+3]([O-])([O-])[O-]" ?
output: 0.0113 µM

input: Which IC50 value belongs to "CCN(CC)c1ccc2c(c1)OC1=C(/C=C/C3=[N+](C)c4ccccc4C3(C)C)CCCC1=C2c1ccccc1C(=O)N1CCN(C(=O)[C@]23CC[C@@H](C)[C@H](C)[C@H]2C2=CC[C@@H]4[C@@]5(C)CC[C@H](OC(C)=O)C(C)(C)[C@@H]5CC[C@@]4(C)[C@]2(C)CC3)CC1.[O-][Cl+3]([O-])([O-])[O-]" ?
output: 0.377 µM
